Ref: patent US20250011363A1

tgt: acetylcholine receptor
assay_name: SPR, AchR immobilized on chip, peptide at 10 uM
measurement_name: Binding affinity (RU)
Write the number in RU without appending the unit.

Lab book: Binding affinity of RRYRKK [6mer-2-40] noted as 153

Lab book: Binding affinity of KVFSKK [6mer-2-10] noted as 124

Lab book: Binding affinity of KGVCKR [6mer-2-65] noted as 148

Lab book: Binding affinity of RQIRKK [6mer-2-22] noted as 124

Lab book: Binding affinity of KQVRKR [6mer-2-15] noted as 133

Lab book: Binding affinity of KLLSKR [6mer-2-42] noted as 126

Lab book: Binding affinity of KQFLKK [6mer-2-51] noted as 139

Lab book: Binding affinity of RVLSRK [6mer-2-59] noted as 123
